organism: Bos taurus; assay: Inhibition of [3H]colchicine binding to bovine brain tubulin at 5 uM relative to control
Given measured inhibition, output y if it is greater than or equal to 40% and n if not.

>>> class_name("O=C(NC1CC1)n1ccc2c3c(=O)cc(-c4ccccc4)[nH]c3ccc21")
"n"
>>> class_name("O=c1cc(-c2ccccc2)[nH]c2ccc3c(ccn3S(=O)(=O)c3ccc(C(F)(F)F)cc3)c12")
"n"
>>> class_name("Cc1ccc(S(=O)(=O)n2ccc3c4c(=O)cc(-c5ccccc5)[nH]c4ccc32)cc1")
"n"
>>> class_name("O=C(c1ccccc1)n1ccc2c3c(=O)cc(-c4ccccc4)[nH]c3ccc21")
"y"
>>> class_name("CS(=O)(=O)n1ccc2c3c(=O)cc(-c4ccccc4)[nH]c3ccc21")
"y"

----------
assay: Metabolic stability in human liver microsomes assessed as parent compound remaining at 10 uM after 60 mins by fluorescence based HPLC analysis; assay type: ADME, microsome; conditions: read-out: Stability
Endpoint: remaining at 1 h, 10 µM

>>> recorded_measurement("O=C(c1ccccc1)n1ccc2c3c(=O)cc(-c4ccccc4)[nH]c3ccc21")
"> 60%"

----------
GI50 listing for selected compounds.
system: MV4-11; assay: Antiproliferative activity against human MV4-11 cells after 72 hrs by MTT assay; assay type: functional; details: MV4-11, 72 h
Endpoint: GI50 (nM)

>>> recorded_measurement("O=C(NC1CC1)n1ccc2c3c(=O)cc(-c4ccccc4)[nH]c3ccc21")
85
>>> recorded_measurement("O=c1cc(-c2ccccc2)[nH]c2ccc3c(ccn3S(=O)(=O)c3ccc(C(F)(F)F)cc3)c12")
86
>>> recorded_measurement("O=c1cc(-c2ccccc2)[nH]c2ccc3c(c12)CCN3S(=O)(=O)c1ccc(C(F)(F)F)cc1")
356
>>> recorded_measurement("O=C(c1ccccc1)N1CCc2c1ccc1[nH]c(-c3ccccc3)cc(=O)c21")
1540
>>> recorded_measurement("Cc1ccc(S(=O)(=O)n2ccc3c4c(=O)cc(-c5ccccc5)[nH]c4ccc32)cc1")
65
>>> recorded_measurement("CS(=O)(=O)N1CCc2c1ccc1[nH]c(-c3ccccc3)cc(=O)c21")
352

----------
system: MCF7; assay: Antiproliferative activity against human MCF7 cells after 72 hrs by MTT assay; assay type: functional; conditions: MCF7, 72 h
Endpoint: GI50

>>> recorded_measurement("O=C(c1ccccc1)n1ccc2c3c(=O)cc(-c4ccccc4)[nH]c3ccc21")
"0.2 nM"
>>> recorded_measurement("CS(=O)(=O)N1CCc2cc3[nH]c(-c4ccccc4)cc(=O)c3cc21")
"> 10000 nM"
>>> recorded_measurement("CS(=O)(=O)N1CCc2c1ccc1[nH]c(-c3ccccc3)cc(=O)c21")
"521 nM"
>>> recorded_measurement("O=c1cc(-c2ccccc2)[nH]c2ccc3c(ccn3S(=O)(=O)c3ccc(C(F)(F)F)cc3)c12")
"5 nM"
>>> recorded_measurement("O=c1cc(-c2ccccc2)[nH]c2ccc3c(c12)CCN3S(=O)(=O)c1ccc(C(F)(F)F)cc1")
"475 nM"
>>> recorded_measurement("Cc1ccc(S(=O)(=O)n2ccc3c4c(=O)cc(-c5ccccc5)[nH]c4ccc32)cc1")
"195 nM"
>>> recorded_measurement("CS(=O)(=O)n1ccc2c3c(=O)cc(-c4ccccc4)[nH]c3ccc21")
"152 nM"
>>> recorded_measurement("O=C(c1ccccc1)N1CCc2cc3[nH]c(-c4ccccc4)cc(=O)c3cc21")
"6320 nM"
>>> recorded_measurement("O=C(C1CC1)n1ccc2c3c(=O)cc(-c4ccccc4)[nH]c3ccc21")
"5 nM"
>>> recorded_measurement("O=C(NC1CC1)n1ccc2c3c(=O)cc(-c4ccccc4)[nH]c3ccc21")
"96 nM"
>>> recorded_measurement("O=C(c1ccccc1)N1CCc2c1ccc1[nH]c(-c3ccccc3)cc(=O)c21")
"1110 nM"
